Test system: A431 cells
measurement protocol: Cellular growth inhibition (sulforhodamine B)
measurement context: read-out: Cellular Growth Inhibition IC50 A431 Anoxic; Table 7; initial 4 hours anoxic
pIC50: −log10 of the molar value.
test readout: pIC50

Consider the reported pIC50 for these compounds:
{"compound": "CC[N+](CC)(CCOc1ccc(Nc2ncc3cc(-c4c(Cl)cccc4Cl)c(=O)n(C)c3n2)cc1)Cc1c([N+](=O)[O-])ncn1C.[Br-] [Compound 140]", "test target": "A431 cells", "value measured": 6.29}
{"compound": "CC[N+](CC)(CCNC(=O)c1c(C)[nH]c(/C=C2\\C(=O)Nc3ccc(F)cc32)c1C)Cc1c([N+](=O)[O-])ncn1C.O=C([O-])C(F)(F)F [Compound 144]", "test target": "A431 cells", "value measured": 4.62}

[P] Cn1cnc([N+](=O)[O-])c1C[N+](C)(C)C/C=C/C(=O)Nc1cc2c(Nc3ccc(F)c(Cl)c3)ncnc2cc1O[C@H]1CCOC1.O=C([O-])C(F)(F)F [Compound 82]
[Q] CC[N+](CC)(CCOc1ccc(Nc2ncc3cc(-c4c(Cl)cccc4Cl)c(=O)n(C)c3n2)cc1)Cc1c([N+](=O)[O-])nc(C)n1C.[Br-] [Compound 141]
Query: From the recorded data, which exceeds the other in pIC50: P or Q ? Write the label of whichever entry you select.
Response: P
(P: 7.23, Q: 6.36)

----------
Test system: A431 cells
measurement protocol: Cellular growth inhibition (sulforhodamine B)
measurement context: Homo sapiens, A-431, 4 h, read-out: Cellular Growth Inhibition IC50 A431 Anoxic
test readout: IC50 (µM)

Below: 3 molecules and their reported IC50.
{"substance smiles": "Cn1cnc([N+](=O)[O-])c1C[N+](C)(C)C/C=C/C(=O)Nc1cc2c(Nc3ccc(F)c(C(F)(F)F)c3)ncnc2cn1", "test target": "A431 cells", "value measured": 0.25}
{"substance smiles": "CN(C)C/C=C/C(=O)Nc1cc2c(Nc3ccc(F)c(C(F)(F)F)c3)ncnc2cn1", "test target": "A431 cells", "value measured": 0.25}
{"substance smiles": "Cn1cnc([N+](=O)[O-])c1C[N+](C)(C)C/C=C/C(=O)Nc1cc2c(Nc3ccc(F)c(Br)c3)ncnc2cn1", "test target": "A431 cells", "value measured": 0.075}

[P] C#Cc1cccc(Nc2ncnc3cnc(NC(=O)/C=C/CN(C)C)cc23)c1
[Q] Cn1cnc([N+](=O)[O-])c1C[N+]1(CCOc2ccc(Nc3ncc4cc(-c5c(Cl)cccc5Cl)c(=O)n(C)c4n3)cc2)CCCCC1.[Br-]
Query: // returns P or Q , whichever has the lower IC50 Use the label to indicate which entry you chose.
Response: P
(P: 0.017 µM, Q: 1 µM)

----------
Here the recorded Effector release/Prodrug loss is given for each entry.
measurement protocol: Steady state radiolytic reduction by the CO2.− radical with HPLC-MS
Format: physicochemical
measurement context: 0.95 reducing equivalents
Please give only the number in your answer, with no unit.

{"substance smiles": "Cn1c(C[N+](C)(C)C/C=C/C(=O)Nc2ccc3ncnc(Nc4cccc(Br)c4)c3c2)ccc1[N+](=O)[O-].[Br-]", "value measured": 0.73}
{"substance smiles": "Cn1cnc([N+](=O)[O-])c1C[N+](C)(C)C/C=C/C(=O)Nc1ccc2ncnc(Nc3cccc(Br)c3)c2c1.[Br-]", "value measured": 1.00}
{"substance smiles": "Cn1cc([N+](=O)[O-])nc1C[N+](C)(C)C/C=C/C(=O)Nc1ccc2ncnc(Nc3cccc(Br)c3)c2c1", "value measured": 0.30}

Query molecule follows.
Query: For the molecule Cn1ncc([N+](=O)[O-])c1C[N+](C)(C)C/C=C/C(=O)Nc1ccc2ncnc(Nc3cccc(Br)c3)c2c1 , give its reported Effector release/Prodrug loss.
Response: 0.49
